Molecular target: T1, MHC class I allele A*0301 monomer (human, biotinylated, bound to streptavidin-coated plate)
T1 construct: also called A3; HLA-A3
Experiment: iTopia, multiparametric iScore
Measurement kind: iScore
Enter a number only.

Worked set:
# Binder, Measurement kind, Obs value
rows = [
    ("QTSYVFLGI [5T4 9-mer peptide 177]", "iScore", 0),
    ("LDLSNNSLV [5T4 9-mer peptide 120]", "iScore", 0),
    ("MHNIRDACR [5T4 9-mer peptide 193]", "iScore", 0),
]

input: Identify measured iScore associated with ACRDHMEGY [5T4 9-mer peptide 196]
output: 0

input: Identify measured iScore associated with ALKVLHNGT [5T4 9-mer peptide 135]
output: 0

input: Identify measured iScore associated with NRVLLELNS [5T4 9-mer peptide 166]
output: 0

input: Identify measured iScore associated with YLNRKGIKK [5T4 9-mer peptide 188]
output: 0.065

Values were extracted from patent US20090280138A1.
